target: PARP (Mus musculus, UniProt P11103); construct: endogenous in cells; host or cells: L1210 murine leukaemia cells, permeabilised by hypotonic buffer and cold shock; assay: PARP inhibition assay ([32P]-NAD incorporation into TCA-precipitated poly(ADP-ribose) in permeabilised L1210 cells, oligonucleotide activated); assay type: biochemical, L1210 murine leukaemia cells; conditions: 30 μM; read-out: % Inhibition (PARP)
Sequence (P11103 whole entry): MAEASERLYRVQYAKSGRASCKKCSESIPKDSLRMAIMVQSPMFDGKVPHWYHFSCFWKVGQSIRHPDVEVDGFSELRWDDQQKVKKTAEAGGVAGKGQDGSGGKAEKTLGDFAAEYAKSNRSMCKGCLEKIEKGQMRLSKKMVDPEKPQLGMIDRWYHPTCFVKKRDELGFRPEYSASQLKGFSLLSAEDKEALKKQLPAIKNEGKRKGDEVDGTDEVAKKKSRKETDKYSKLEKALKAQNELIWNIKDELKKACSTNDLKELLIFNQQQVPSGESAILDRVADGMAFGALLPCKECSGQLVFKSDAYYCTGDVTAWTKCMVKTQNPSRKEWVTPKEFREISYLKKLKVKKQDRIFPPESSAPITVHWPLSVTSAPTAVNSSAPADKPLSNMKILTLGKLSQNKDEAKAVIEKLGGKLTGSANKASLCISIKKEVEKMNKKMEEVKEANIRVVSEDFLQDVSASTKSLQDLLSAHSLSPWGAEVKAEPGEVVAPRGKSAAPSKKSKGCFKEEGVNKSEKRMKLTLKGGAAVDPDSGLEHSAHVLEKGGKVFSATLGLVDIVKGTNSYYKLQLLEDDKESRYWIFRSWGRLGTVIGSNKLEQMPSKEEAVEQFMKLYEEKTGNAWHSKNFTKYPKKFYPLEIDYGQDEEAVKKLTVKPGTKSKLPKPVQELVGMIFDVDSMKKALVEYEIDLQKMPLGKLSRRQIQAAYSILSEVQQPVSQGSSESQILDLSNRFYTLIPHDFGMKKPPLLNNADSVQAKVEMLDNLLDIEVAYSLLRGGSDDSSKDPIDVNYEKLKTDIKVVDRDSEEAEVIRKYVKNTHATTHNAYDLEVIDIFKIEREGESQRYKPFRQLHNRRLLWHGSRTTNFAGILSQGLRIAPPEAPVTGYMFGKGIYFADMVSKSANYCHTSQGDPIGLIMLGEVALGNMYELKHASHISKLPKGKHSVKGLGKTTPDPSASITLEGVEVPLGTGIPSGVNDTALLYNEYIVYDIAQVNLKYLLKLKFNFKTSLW
quantity kind: inhibition at 30 µM (%)
Express your answer in %, writing the number without its unit.

Inquiry: Name the recorded inhibition at 30 µM for CCCCOc1cccc(C(N)=O)c1 [NU1038, 3-butoxybenzamide] .
Reply text: 50

Inquiry: Param item: CC(C)(C)c1nc2c(C(N)=O)cccc2o1 [NU1040, 2-t-butylbenzoxazole-4-carboxamide]
Reply text: 88

Inquiry: Param item: COc1ccc(COc2cccc(C(N)=O)c2)cc1 [NU1006, 3-(4-methoxybenzyloxy)benzamide]
Reply text: 74

Inquiry: Param item: NC(=O)c1cccc(OCCCCCn2cnc3c(N)ncnc32)c1 [NU1024, 3-(5-Adenos-9-ylpentyloxy)benzamide]
Reply text: 42

Inquiry: Param item: NC(=O)c1cccc(OCc2cccc([N+](=O)[O-])c2)c1 [NU1017, 3-(3-Nitrobenzyloxy)benzamide]
Reply text: 40

----------
molecular target: PARP (Mus musculus, UniProt P11103); construct: endogenous in cells; host or cells: L1210 murine leukaemia cells, permeabilised by hypotonic buffer and cold shock; assay: PARP inhibition assay ([32P]-NAD incorporation into TCA-precipitated poly(ADP-ribose) in permeabilised L1210 cells, oligonucleotide activated); type: biochemical, L1210 murine leukaemia cells
pIC50: −log10 of the molar value.
Label rule, in plain words: pIC50 of 6 and up is class 1, under 6 is class 0.

Inquiry: Quick check: does O=c1[nH]c(-c2ccccc2)nc2c(O)cccc12 [NU1068, 8-Hydroxy-2-phenylquinazolin-4-[3H]-one] have pIC50 greater than or equal to 6?
Reply text: class 1

Inquiry: Param item: COc1cccc2c(=O)[nH]c(-c3ccccc3)nc12 [NU1065, 8-Methoxy-2-phenylquinazolin-4-[3H]-one]
Reply text: class 0

Inquiry: Param item: Cc1nc2c(C(N)=O)cccc2o1 [NU1056, 2-Methylbenzoxazole-4-carboxamide]
Reply text: class 0

Inquiry: Param item: Cc1nc2c(C)cccc2c(=O)[nH]1 [NU1069, 2,8-Dimethylquinazolin-4-[3H]-one]
Reply text: class 1

Inquiry: Param item: O=c1[nH]c(-c2ccc([N+](=O)[O-])cc2)nc2c(O)cccc12
Reply text: class 1

Inquiry: Param item: NC(=O)c1cccc2oc(-c3ccccc3)nc12 [NU1051, 2-Phenylbenzoxazole-4-carboxamide]
Reply text: class 0

----------
target: PARP (Mus musculus); construct: endogenous in cells; host or cells: L1210 murine leukaemia cells, permeabilised by hypotonic buffer and cold shock; test: PARP inhibition assay ([32P]-NAD incorporation into TCA-precipitated poly(ADP-ribose) in permeabilised L1210 cells, oligonucleotide activated); assay type: biochemical, L1210 murine leukaemia cells; details: 10 μM; read-out: % Inhibition (PARP)
quantity kind: inhibition at 10 µM (%)
Express your answer in %, writing the number without its unit.

Inquiry: Name the recorded inhibition at 10 µM for COc1cccc(C(N)=O)c1 [3-methoxybenzamide, reference compound] .
Reply text: 55

Inquiry: Param item: O=c1[nH]cnc2c(O)cccc12 [NU1026, 8-hydroxyquinazolin-4-[3H]one]
Reply text: 78

Inquiry: Param item: COc1ccc(COc2cccc(C(N)=O)c2)cc1 [NU1006, 3-(4-methoxybenzyloxy)benzamide]
Reply text: 58
